The reported measurements were obtained from patent US20220348647A1.

experimental.system: T1, human CCL17 (human, UniProt Q92583 24-94)
T1 sequence: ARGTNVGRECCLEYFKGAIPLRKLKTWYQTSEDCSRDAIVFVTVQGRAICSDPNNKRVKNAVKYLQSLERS
run.description: cell-based or functional assay
readout.name: IC50 (nM), calcium flux assay in CCRF-CEM cells, 10 ng/ml human CCL17

* C17B238 (antibody, V domains shown, Full IgG1, kappa) VH: EVQLVQSGAEVKKPGESLKISCKGSGYSFTSYWIGWVRQMPGKGLEWMGIIDPSDSDTRYSPSFQGQVTISADKSISTAYLQWSSLKASDTAMYYCARVGPADVWDSFDYWGQGTLVTVSS VL: DIVMTQSPDSLAVSLGERATINCKSSQSVLISAFNQNPLAWYQQKPGQPPKLLIYDASTRESGVPDRFSGSGSGTDFTLTISSLQAEDVAVYYCQQYQFIPFTFGQGTKVEIK | 0.387
* C17B239 (antibody, V domains shown, Full IgG1, kappa) VH: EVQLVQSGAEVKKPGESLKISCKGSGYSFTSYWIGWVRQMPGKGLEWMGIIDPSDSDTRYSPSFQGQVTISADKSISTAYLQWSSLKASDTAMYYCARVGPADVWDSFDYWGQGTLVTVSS VL: DIVMTQSPDSLAVSLGERATINCKSSQSVLSSFTNTNTLAWYQQKPGQPPKLLIYHASTRESGVPDRFSGSGSGTDFTLTISSLQAEDVAVYYCQQYLIYPSTFGQGTKVEIK | 0.427
* C17B302 (antibody, human IgG2, kappa, V domains shown) VH: EVQLVQSGAEVKKPGESLKISCKGSGYSFTSYWIGWVRQMPGKGLEWMGIIDPSDSDTRYSPSFQGQVTISADKSISTAYLQWSSLKASDTAMYYCARVGPADVWDAFDYWGQGTLVTVSS VL: DIVMTQSPDSLAVSLGERATINCKSSQSVLLSFDNINKLAWYQQKPGQPPKLLIYDASTRESGVPDRFSGSGSGTDFTLTISSLQAEDVAVYYCQQFYSVPSTFGQGTKVEIKR | 0.593
* C17B234 (antibody, V domains shown, Full IgG1, kappa) VH: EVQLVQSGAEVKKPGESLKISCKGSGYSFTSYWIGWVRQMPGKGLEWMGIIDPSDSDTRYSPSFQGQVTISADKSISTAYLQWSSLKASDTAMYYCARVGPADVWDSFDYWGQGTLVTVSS VL: DIVMTQSPDSLAVSLGERATINCKSSQSVLLSFDNINKLAWYQQKPGQPPKLLIYNASTRESGVPDRFSGSGSGTDFTLTISSLQAEDVAVYYCQQFYSVPSTFGQGTKVEIK | 0.421
* C17B243 (antibody, V domains shown, Full IgG1, kappa) VH: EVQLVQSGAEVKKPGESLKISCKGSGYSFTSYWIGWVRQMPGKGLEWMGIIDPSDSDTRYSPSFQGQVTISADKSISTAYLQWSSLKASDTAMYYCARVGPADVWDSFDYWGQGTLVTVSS VL: DIVMTQSPDSLAVSLGERATINCKSSQSVLNSFDNKNDLAWYQQKPGQPPKLLIYEASTRESGVPDRFSGSGSGTDFTLTISSLQAEDVAVYYCQQHWQTPLTFGQGTKVEIK | 0.231
* C17B311 (antibody, V domains shown) VH: EVQLVQSGAEVKKPGESLKISCKGSGYSFTSYWIGWVRQMPGKGLEWMGIIDPSDSDTRYSPSFQGQVTISADKSISTAYLQWSSLKASDTAMYYCARVGPADVWDAFDYWGQGTLVTVSS VL: DIVMTQSPDSLAVSLGERATINCKSSQSVLLSFDNINKLAWYQQKPGQPPKLLIYDASTRESGVPDRFSGSGSGTDFTLTISSLQAEDVAVYYCQQFYSVPSTFGQGTKVEIK | 0.553
